These data points were gathered from PubChem BioAssay AID1963984.

# Test system: 233499-124-R-J3-PDC spheroids with HUVEC/MSC, viability
# PROCEDURE DETAILS: Anticancer human tumor 233499-124-R-J3-PDC patient-derived colon adenocarcinoma cell line growth inhibition [PI3K]
# CONDITIONS USED: second compound 1 µM; first compound 1 µM; stronger effect = lower value
RECORDED ENDPOINT: viability, T/C

Query: Tell me viability, T/C reported for CC1(C)CCC(Nc2ncc(C(F)(F)F)c(-c3c[nH]c4c(P(C)(C)=O)c(C#N)ccc34)n2)CN1 (stereo not given) + Cc1nc(NC(=O)N2CCCC2C(N)=O)sc1-c1ccnc(C(C)(C)C(F)(F)F)c1
Result: 21.9%

Query: Please supply the value of reported viability, T/C for the item CC1(C)CCC(CN2CCN(c3ccc(C(=O)NS(=O)(=O)c4ccc(NCC5CCOCC5)c([N+](=O)[O-])c4)c(Oc4cnc5[nH]ccc5c4)c3)CC2)=C(c2ccc(Cl)cc2)C1 + COc1c(OCCCN2CCOCC2)ccc2c3n(c(=NC(=O)c4cnc(N)nc4)nc12)CCN3
Result: 13.9%

Query: State, in one line, measured viability, T/C of CCN1CCN(Cc2ccc(Nc3ncc(F)c(-c4cc(F)c5nc(C)n(C(C)C)c5c4)n3)nc2)CC1 + Cc1nc(NC(=O)N2CCCC2C(N)=O)sc1-c1ccnc(C(C)(C)C(F)(F)F)c1
Result: 21.3%

Query: Tell me measured viability, T/C for CNC(=O)c1ccc(N2C(=S)N(c3ccc(C#N)c(C(F)(F)F)c3)C(=O)C2(C)C)cc1F + COc1c(OCCCN2CCOCC2)ccc2c3n(c(=NC(=O)c4cnc(N)nc4)nc12)CCN3 please.
Result: 5.24%

Query: Please give the documented viability, T/C of Cn1ncc(Cl)c1-c1cc(C(=O)NC(CN)Cc2cccc(F)c2)sc1Cl (stereo not given) + CC(Nc1ccc2c(c1)OCCn1cc(N3C(=O)OCC3C(F)F)nc1-2)C(N)=O
Result: 56%

====

# Test system: 233499-124-R-J3-PDC spheroids with HUVEC/MSC, viability
# PROCEDURE DETAILS: Anticancer human tumor 233499-124-R-J3-PDC cell line growth inhibition [PI3K];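 also: spheroids exposed to agents for seven days before readout; percent viability relative to DMSO vehicle control taken as 100%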
# CONDITIONS USED: second compound 0.0316 µM; first compound 0.000316 µM; stronger effect = lower value
Lab note: anything with viability, T/C below 90% is marked Criterion met; values at 90% or higher are marked Criterion not met.

Query: Please let me know if CC(C)n1nc(-c2ccc3oc(N)nc3c2)c2c(N)ncnc21 + COc1c(OCCCN2CCOCC2)ccc2c3n(c(=NC(=O)c4cnc(N)nc4)nc12)CCN3 shows viability, T/C below 90%.
Result: Criterion met

Query: Please let me know if CC(=O)c1c(C)c2cnc(Nc3ccc(N4CCNCC4)cn3)nc2n(C2CCCC2)c1=O + Cc1nc(NC(=O)N2CCCC2C(N)=O)sc1-c1ccnc(C(C)(C)C(F)(F)F)c1 shows viability, T/C below 90%.
Result: Criterion not met

Query: # strict comparison: is reported viability, T/C < 90%? input = CC(C)n1nc(-c2ccc3oc(N)nc3c2)c2c(N)ncnc21 + CC(Nc1ccc2c(c1)OCCn1cc(N3C(=O)OCC3C(F)F)nc1-2)C(N)=O
Result: Criterion not met

Query: Determine if Cn1ncnc1[C@H]1c2n[nH]c(=O)c3cc(F)cc(c23)N[C@@H]1c1ccc(F)cc1 + Cc1nc(NC(=O)N2CCCC2C(N)=O)sc1-c1ccnc(C(C)(C)C(F)(F)F)c1 shows viability, T/C strictly lower than 90%.
Result: Criterion not met

====

# System: 233499-124-R-J3-PDC spheroids with HUVEC/MSC, viability
# PROCEDURE DETAILS: Anticancer human tumor 233499-124-R-J3-PDC cell line growth inhibition [PI3K];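 also: spheroids exposed to agents for seven days before readout; percent viability relative to DMSO vehicle control taken as 100%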
# CONDITIONS USED: second compound 0.0316 µM; first compound 3.16 µM; stronger effect = lower value
# Excerpt: Combinatorial screen of targeted agents with the PI3K inhibitors inavolisib, alpelisib, duvelisib, and copanlisib in multi-cell type tumor spheroids A high-throughput screen of multi-cell type tumor spheroids was designed to identify active combinations of targeted small molecules and PI3K pathway inhibitors. […] Compounds. […] If the clinical Cmax for an agent had not been determined, the highest concentration tested was 10 microM. […]
RECORDED ENDPOINT: viability, T/C (%)
Your answer is read as %, so omit the unit and give the number.

Query: Give a short answer stating reported viability, T/C for CC(C)NCC(C(=O)N1CCN(c2ncnc3c2C(C)CC3O)CC1)c1ccc(Cl)cc1 (configuration not stated) + Cc1nc(NC(=O)N2CCCC2C(N)=O)sc1-c1ccnc(C(C)(C)C(F)(F)F)c1 .
Result: 94.3

Query: Given the compound C[C@@H](NC(=O)c1ncnc(N)c1Cl)c1ncc(C(=O)Nc2cc(C(F)(F)F)c(Cl)cn2)s1 + COc1c(OCCCN2CCOCC2)ccc2c3n(c(=NC(=O)c4cnc(N)nc4)nc12)CCN3 , write its reported viability, T/C.
Result: 107

Query: Return viability, T/C for the following compound: CC1(C)CCC(CN2CCN(c3ccc(C(=O)NS(=O)(=O)c4ccc(NCC5CCOCC5)c([N+](=O)[O-])c4)c(Oc4cnc5[nH]ccc5c4)c3)CC2)=C(c2ccc(Cl)cc2)C1 + COc1c(OCCCN2CCOCC2)ccc2c3n(c(=NC(=O)c4cnc(N)nc4)nc12)CCN3
Result: 80.1

Query: Kindly indicate its recorded viability, T/C. Item: CCCS(=O)(=O)Nc1ccc(F)c(C(=O)c2c[nH]c3ncc(-c4ccc(Cl)cc4)cc23)c1F + Cc1nc(NC(=O)N2CCCC2C(N)=O)sc1-c1ccnc(C(C)(C)C(F)(F)F)c1
Result: 89

Query: Read off the recorded viability, T/C for Cn1nccc1Nc1nccc(-c2ccn(C(CO)c3ccc(Cl)c(F)c3)c(=O)c2)n1 (configuration not stated) + Cc1nc(NC(=O)N2CCCC2C(N)=O)sc1-c1ccnc(C(C)(C)C(F)(F)F)c1
Result: 68.9

Query: Identify the reported viability, T/C for the following entry. CC1(C)CCC(CN2CCN(c3ccc(C(=O)NS(=O)(=O)c4ccc(NCC5CCOCC5)c([N+](=O)[O-])c4)c(Oc4cnc5[nH]ccc5c4)c3)CC2)=C(c2ccc(Cl)cc2)C1 + CC(Nc1ncnc2nc[nH]c12)c1cc2cccc(Cl)c2c(=O)n1-c1ccccc1
Result: 96.2

Query: Item CC1(C)CCC(Nc2ncc(C(F)(F)F)c(-c3c[nH]c4c(P(C)(C)=O)c(C#N)ccc34)n2)CN1 (configuration not stated) + CC(Nc1ccc2c(c1)OCCn1cc(N3C(=O)OCC3C(F)F)nc1-2)C(N)=O : provide viability, T/C
Result: 17.1

====

# Tested on: 233499-124-R-J3-PDC spheroids with HUVEC/MSC, viability
# PROCEDURE DETAILS: Anticancer human tumor 233499-124-R-J3-PDC cell line growth inhibition [PI3K];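 also: spheroids exposed to agents for seven days before readout; percent viability relative to DMSO vehicle control taken as 100%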
# CONDITIONS USED: second compound 3.16 µM; first compound 0.01 µM; stronger effect = lower value
RECORDED ENDPOINT: viability, T/C (%)
Your answer is read as %, so omit the unit and give the number.

Query: Please report the measured viability, T/C for CCN1CCN(Cc2ccc(Nc3ncc(F)c(-c4cc(F)c5nc(C)n(C(C)C)c5c4)n3)nc2)CC1 + CC(Nc1ncnc2nc[nH]c12)c1cc2cccc(Cl)c2c(=O)n1-c1ccccc1
Result: 79.2

Query: Supply measured viability, T/C of Cn1ncnc1[C@H]1c2n[nH]c(=O)c3cc(F)cc(c23)N[C@@H]1c1ccc(F)cc1 + Cc1nc(NC(=O)N2CCCC2C(N)=O)sc1-c1ccnc(C(C)(C)C(F)(F)F)c1 in your reply.
Result: 41

Query: State its viability, T/C: Cn1ncnc1[C@H]1c2n[nH]c(=O)c3cc(F)cc(c23)N[C@@H]1c1ccc(F)cc1 + CC(Nc1ncnc2nc[nH]c12)c1cc2cccc(Cl)c2c(=O)n1-c1ccccc1
Result: 82.4

Query: Look up viability, T/C of CC(=O)c1c(C)c2cnc(Nc3ccc(N4CCNCC4)cn3)nc2n(C2CCCC2)c1=O + CC(Nc1ncnc2nc[nH]c12)c1cc2cccc(Cl)c2c(=O)n1-c1ccccc1 and report it.
Result: 83.8

Query: Look up viability, T/C of CC(=O)c1c(C)c2cnc(Nc3ccc(N4CCNCC4)cn3)nc2n(C2CCCC2)c1=O + Cc1nc(NC(=O)N2CCCC2C(N)=O)sc1-c1ccnc(C(C)(C)C(F)(F)F)c1 and report it.
Result: 37.5

Query: For the compound CCN1CCN(Cc2ccc(Nc3ncc(F)c(-c4cc(F)c5nc(C)n(C(C)C)c5c4)n3)nc2)CC1 + Cc1nc(NC(=O)N2CCCC2C(N)=O)sc1-c1ccnc(C(C)(C)C(F)(F)F)c1 , give its reported viability, T/C.
Result: 49.1

Query: State its viability, T/C for this compound: CC(C)n1nc(-c2ccc3oc(N)nc3c2)c2c(N)ncnc21 + Cc1nc(NC(=O)N2CCCC2C(N)=O)sc1-c1ccnc(C(C)(C)C(F)(F)F)c1
Result: 39.7

Query: State, in one line, measured viability, T/C of CC(C)n1nc(-c2ccc3oc(N)nc3c2)c2c(N)ncnc21 + CC(Nc1ncnc2nc[nH]c12)c1cc2cccc(Cl)c2c(=O)n1-c1ccccc1
Result: 67.7
